Where do these numbers come from? They come from paper PMC5540273.

tested on: CLK2; conditions: concentration: 1 μM, replicates: in singlicate; n = 1;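 also: KINOMEscan kinase panel screen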
The following compounds are listed with their measured %Inh values.
Record the value in %, omitting the unit from your answer.

# Compound, Target, Unit abbreviation, %Inh
rows = [
    ("COc1cc(Nc2ncc3c(C)nc(-c4cc5ccccc5[nH]4)n3n2)cc(OC)c1OC", "CLK2", "%", 75),
    ("C[C@@H](Oc1cc(-n2cnc3cc(-c4ccnc(NCCS(C)(=O)=O)c4)ccc32)sc1C(N)=O)c1ccccc1Cl", "CLK2", "%", 4),
    ("CN(C)S(=O)(=O)c1cc(-c2ccc3nccc(-c4cccc(S(N)(=O)=O)c4)c3c2)cnc1N", "CLK2", "%", 86),
    ("C[C@@H]1CC[C@@H](C(=O)Nc2ccccc2)CN1c1cc(-c2ccc3c(N)n[nH]c3c2)nc(N)n1", "CLK2", "%", 13),
    ("COc1cccc(-c2ccc3c(NC(=O)C4CC4)n[nH]c3n2)c1", "CLK2", "%", 100),
]

Next compound, %Inh to be filled in.
Tell me %Inh reported for FC(F)(F)c1ccc(/C=C/c2cncnc2Nc2ccc3[nH]c(Cc4ccccc4)nc3c2)cc1 0

* * *

The following molecules are listed with their measured %Inh values.
test system: GRK1; conditions: concentration: 1 μM, replicates: in singlicate; n = 1
Please state the value followed by its unit.

# Molecule, Outcome measure, Assay value
data = [
    ("Nc1ncc(-c2ccc3nccc(-c4ccncc4)c3c2)cc1S(=O)(=O)N1CCOCC1", "%Inh", "1%"),
    ("COc1cc(Nc2nccc(-c3c(-c4cccc(NC(=O)c5c(F)cccc5F)c4)nn4ncccc34)n2)cc(OC)c1OC", "%Inh", "0%"),
    ("COc1cc(Nc2nccc(-c3c(-c4cccc(NC(=O)c5c(F)cccc5F)c4)nn4ccccc34)n2)cc(OC)c1OC", "%Inh", "13%"),
    ("O=C(Nc1cccc(-c2nn3ccccc3c2-c2ccnc(Nc3cccc(C(F)(F)F)c3)n2)c1)c1c(F)cccc1F", "%Inh", "3%"),
    ("CCn1c(-c2nonc2N)nc2c(C#CC(C)(C)O)ncc(OCCCCN)c21.O=C(O)C(F)(F)F.O=C(O)C(F)(F)F", "%Inh", "65%"),
    ("O=C(Nc1cccc(Oc2ccc3nc(NC(=O)C4CC4)cn3n2)c1)c1ccccc1C(F)(F)F", "%Inh", "9%"),
]

Next molecule, %Inh to be filled in.
Tell me %Inh reported for CSc1cccc2c(-c3ccncn3)c(-c3ccc(F)cc3)nn12 6%

* * *

The following compounds are listed with their measured %Inh values.
test system: NEK1; details: concentration: 1 μM, replicates: in singlicate; n = 1
Record the value in %, omitting the unit from your answer.

Here are 6 compounds together with their reported answers.
# Compound, Unit abbreviation, %Inh
measured = [
    ("O=C(NC1CCN(c2ccnc(Nc3ccc(F)cc3)n2)C1)c1cc2ccccc2s1 (centres unmarked) [GSK1379716]", "%", 0),
    ("CCCCc1nn2ncccc2c1-c1ccnc(Nc2ccc(N3CCN(C)CC3)cc2)n1 [GW684941]", "%", 0),
    ("COc1ccc(CNC(=O)NC2CCN(c3ccnc(Nc4ccc(F)cc4)n3)CC2)cc1 [GSK1379788]", "%", 0),
    ("Cl.NC(=O)c1cccc(Nc2nccc(Nc3ccc(Oc4c(Cl)cccc4Cl)c(Cl)c3)n2)c1 [GW659009]", "%", 0),
    ("COc1cccc(NC(=O)NC2CCN(c3ccnc(Nc4cc(OC)c(OC)c(OC)c4)n3)C2)c1 (centres unmarked) [GSK1379763]", "%", 65),
    ("COc1cc2c(cc1OCCN1CCNCC1)ncc1c3ccc(C#N)cc3[nH]c21", "%", 0),
]

Tell me %Inh reported for COc1cc(Nc2nccc(N3CCC(NC(=O)c4cc5ccccc5s4)C3)n2)cc(OC)c1OC (centres unmarked) [GSK1379760] 35

Tell me %Inh reported for Cl.c1ccc(-c2ccc3c(Nc4ccc5[nH]ccc5c4)ccnc3c2)nc1 [GW440138] 0
